# assayed_target: T1, chimeric Leptin (Hu)-EPO (Mu) receptor presented by the 32D OBECA cell line (human; murine, UniProt P48357 22-839; P14753 250-507)
# T1 construct: Chimera of human leptin receptor and murine EPO receptor on 32D OBECA / 32D-Keptin cells; 273(29): 18365-18373; also called chimeric Hu-Leptin/Mu-EPO receptor
# T1 sequence (looked up): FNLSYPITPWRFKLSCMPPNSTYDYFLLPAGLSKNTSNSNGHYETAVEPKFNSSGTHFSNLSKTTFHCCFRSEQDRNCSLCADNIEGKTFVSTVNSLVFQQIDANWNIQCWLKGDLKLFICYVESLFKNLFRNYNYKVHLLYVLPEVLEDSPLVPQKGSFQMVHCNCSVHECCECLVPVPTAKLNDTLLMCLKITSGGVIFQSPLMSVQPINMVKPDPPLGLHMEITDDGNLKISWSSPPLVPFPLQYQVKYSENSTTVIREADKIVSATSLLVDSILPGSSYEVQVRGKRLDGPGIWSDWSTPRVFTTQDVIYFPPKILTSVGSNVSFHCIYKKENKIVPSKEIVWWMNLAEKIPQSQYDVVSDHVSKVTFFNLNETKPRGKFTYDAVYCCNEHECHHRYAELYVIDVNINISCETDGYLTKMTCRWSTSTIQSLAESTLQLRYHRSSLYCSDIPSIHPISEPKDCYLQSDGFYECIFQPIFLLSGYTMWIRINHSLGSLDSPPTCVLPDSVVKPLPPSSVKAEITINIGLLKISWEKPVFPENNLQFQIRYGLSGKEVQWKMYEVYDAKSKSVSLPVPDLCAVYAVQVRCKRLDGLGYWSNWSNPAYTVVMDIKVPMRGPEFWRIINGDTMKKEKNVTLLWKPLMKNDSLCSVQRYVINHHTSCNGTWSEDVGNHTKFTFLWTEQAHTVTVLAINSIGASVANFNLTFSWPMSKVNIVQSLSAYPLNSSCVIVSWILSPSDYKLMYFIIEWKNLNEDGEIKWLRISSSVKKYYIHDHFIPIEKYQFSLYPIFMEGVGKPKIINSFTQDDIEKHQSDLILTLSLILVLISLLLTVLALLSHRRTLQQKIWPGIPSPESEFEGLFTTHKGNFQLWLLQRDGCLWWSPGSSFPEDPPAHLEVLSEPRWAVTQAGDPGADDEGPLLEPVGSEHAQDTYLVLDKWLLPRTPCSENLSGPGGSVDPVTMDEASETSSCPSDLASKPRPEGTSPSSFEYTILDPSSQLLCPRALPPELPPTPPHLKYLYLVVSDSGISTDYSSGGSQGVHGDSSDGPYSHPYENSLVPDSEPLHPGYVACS
# protocol_text: Obeca cell binding: displacement of 125I-murine leptin from 32D OBECA cell membranes
Catalogue of pIC50 readings, one per entry.
The meaning of pIC50 here: minus log10 of the concentration in molar units.

Please review the entries below; each comes with its answer.
binder | pIC50
Seal leptin with N-terminal methionine, and with amino acids 93-119 replaced with amino acids 95-121 (loop 3-4) of metreleptin (ligand, Seal-human chimeric leptin; also called Compound 42; Cmpd 42) MPIQRVQDDTKTLIKTIITRINDISPPQGVCSRPRVAGLDFIPRVQSVRTLSGMDQILATYQQILTSLQSRSVVQIANDLANLRALLRLLASAKSCHLPWASGLETLDSLGGVLEASGYSTEVVALSRLKAALQDMLRQLDRNPGC | 8.70
Seal leptin with N-terminal methionine, and with amino acids 71-92 replaced with amino acids 73-94 (helix 3) of metreleptin, and with amino acids 23-49 … (ligand, Seal-human chimeric leptin; also called Compound 51) MPIQRVQDDTKTLIKTIITRINDISHTQSVSSKQKVTGLDFIPGLHPILTLSGMDQILATYQQILTSLQSRNVIQISNDLENLRDLLHVLAFSKSCPVPRARGSDTIKGLGNVLRASVHSTEVVALSRLKAALQDMLRQLDRNPGC | 9.92

stdin: I'd like to know its pIC50. The binder in question is Seal leptin with N-terminal methionine, and with amino acids 23-49 replaced with amino acids 25-51 (AB loop) of metreleptin (ligand, Seal-human chimeric leptin; also called Compound 46) MPIQRVQDDTKTLIKTIITRINDISHTQSVSSKQKVTGLDFIPGLHPILTLSGMDQILATYQQILTSLQSRSVVQIANDLANLRALLRLLASAKSCPVPRARGSDTIKGLGNVLRASVHSTEVVALSRLKAALQDMLRQLDRNPGC
stdout: 9.32

stdin: What do we get for Seal leptin with N-terminal methionine, and with amino acids 120-141 replaced with amino acids 122-143 (helix 4) of metreleptin (ligand, Seal-human chimeric leptin; also called Compound 44) MPIQRVQDDTKTLIKTIITRINDISPPQGVCSRPRVAGLDFIPRVQSVRTLSGMDQILATYQQILTSLQSRSVVQIANDLANLRALLRLLASAKSCPVPRARGSDTIKGLGNVLRASVHSTEVVALSRLQGSLQDMLWQLDLNPGC ?
stdout: 8.45

# credit: patent US20130203661A1
